- assay target: Cysteine protease ATG4B (Homo sapiens) (UniProt Q9Y4P1)
- Sequence (Q9Y4P1 whole entry, looked up): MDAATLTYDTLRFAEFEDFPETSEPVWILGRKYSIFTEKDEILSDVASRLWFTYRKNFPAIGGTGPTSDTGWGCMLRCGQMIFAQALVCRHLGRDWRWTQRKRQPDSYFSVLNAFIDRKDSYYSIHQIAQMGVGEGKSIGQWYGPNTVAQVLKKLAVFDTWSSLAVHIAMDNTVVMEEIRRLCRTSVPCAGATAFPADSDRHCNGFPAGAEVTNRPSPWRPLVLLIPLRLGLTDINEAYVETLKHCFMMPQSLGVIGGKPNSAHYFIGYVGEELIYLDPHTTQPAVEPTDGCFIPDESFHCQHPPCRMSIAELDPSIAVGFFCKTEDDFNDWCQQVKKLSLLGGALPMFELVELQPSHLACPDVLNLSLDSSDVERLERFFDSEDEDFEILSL
- protocol notes: ATG4B protease inhibitors, primary screen, biochemical, fluorescence, uHTS (AID 504462)
- condition set: ATG4B cleavage of LC3-PLA2, NBD-HPC fluorescence, 1 h; at 8.33 µM; stronger effect = higher value
Out of some 340,000 compounds screened, about 1,700 (0.5%) were called active. This excerpt belongs to a sample that is enriched for actives.
property measured: inhibition (%)

> print(dat)
                                    molecule  measured.value
 1          COc1nc(NC2CCCCC2)nc(N2CCCCCC2)n1            15.7
 2  O=C(CCn1nnc2ccccc2c1=O)N[C@@H](Cc1c[nH]c2ccccc12)C(=O)O            0.19
 3  O=C(N[C@@H](Cc1c[nH]c2ccccc12)C(=O)O)OCC1c2ccccc2-c2ccccc21            61.3
 4  Cc1c(Cl)c([N+](=O)[O-])nn1Cc1ccc(C(=O)N/N=C\c2cc(Cl)ccc2O)o1            64.3
 5  C#CCOc1ccc(/C=C2/C(=O)NN(c3ccccc3)C2=O)cc1OC             3.6
 6  Cc1ncc(CC(=O)n2cc(C(=O)c3cc(Cl)ccc3O)cn2)s1              80
 7  Cc1c(Cl)cccc1NC(=O)CC1SC(=NCC2CCCO2)NC1=O (stereo not given)            1.67
 8  COc1ccc(C)cc1NC(=O)CSc1nnc2ccc(-c3ccccn3)nn12           -1.16
 9  C[C@@H]1ON(C)[C@H]2C[C@H]3c4cc(N5CCN(C)CC5)ccc4CCN3C(=O)[C@@H]12           -6.52
10      O=C(c1cnn(-c2ccc(Cl)cc2)c1)c1ccccc1O            14.8
11  CCCCN(C1CCS(=O)(=O)C1)S(=O)(=O)c1ccc(C(C)C)cc1 (stereo not given)            6.86
12  Cc1ccc(-c2nnn(CC(=O)N(CCO)C(C(=O)NC(C)(C)C)c3ccncc3)n2)cc1 (stereo not given)            3.82
13  CC1CC(C)CN(C/C=C/c2ccccc2[N+](=O)[O-])C1 (stereo not given)            11.3
14               C/C=N/NC(=O)CCCC(=O)N/N=C/C           -3.09
15  Cc1ccc(/C=C/C(=O)O)cc1S(=O)(=O)N1CCC(Cc2ccccc2)CC1            3.43

====

Listed here: items and their measured inhibition.
- assay target: Cysteine protease ATG4B (Homo sapiens)
- protocol notes: ATG4B protease inhibitors, primary screen, biochemical, fluorescence, uHTS (AID 504462)
- condition set: ATG4B cleavage of LC3-PLA2, NBD-HPC fluorescence, 1 h; at 8.33 µM; stronger effect = higher value
In all, about 340,000 compounds went through this assay and about 1,700 (0.5%) were called active. For the sample, actives were picked, then their nearest neighbours and some compounds at random.
property measured: inhibition (%)

> print(dat)
                           smiles.structure  measured.value
1  O=C1C[C@@H]2c3c(cccc3CN1Cc1ccccc1)C[C@@H](O)[C@H]2O            0.85
2  Cc1onc(C(=O)NCc2ccc(F)cc2)c1[N+](=O)[O-]            1.98
3     COc1ccc(C(=O)CC(=O)c2ccc(C)cc2)c(O)c1            1.97
